- Tested on: SN12C
- Experiment Summary: NCI tumour cell line growth inhibition, 48 h
Active and inactive are the calls of the source. No stated cut-off is given here; in the data, active = GI50 up to about 1.1 µM and inactive = higher.
Reported GI50 values follow for various compounds

Use the examples below as a reference point.
CN1C2CCC1CC(CCOC(c1ccc(F)cc1)c1ccc(F)cc1)C2 (stereo not drawn); 18.4 µM (inactive)
COc1cc(/C=C/C=C2\CCC/C(=C\C=C\c3ccc(O)c(OC)c3)C2=O)ccc1O; 17.3 µM (inactive)
O=C1CCCCC/C1=C\c1cccc([N+](=O)[O-])c1; 45.7 µM (inactive)
CC(=O)OC1C=CC2CCN3C(=O)c4cc5c(cc4[C@H]1C23)OCO5 (stereo partly drawn); > 100 µM (inactive)
C=CCC(CNC(=O)OCc1ccccc1)OC(=O)OCc1ccccc1 (stereo not drawn); > 100 µM (inactive)

## Input Recorded GI50 for O/N=C1/C(=C/c2ccc(Br)cc2)CCCC1C(NO)c1ccc(Br)cc1 (stereo not drawn) , please?
## Output 12.4 µM (inactive)

## Input Recorded GI50 for CC1CCC2C(C)(C)CC3(C)CCC1C23O (stereo not drawn) , please?
## Output 16.9 µM (inactive)

## Input Recorded GI50 for COC1=CC(=O)OC(/C=C(C)/C=C/C2=C(C)CCCC2(C)C)C1 (stereo not drawn) , please?
## Output > 100 µM (inactive)

----------
- System: HOP-62
- Experiment Summary: NCI tumour cell line growth inhibition, 48 h
The source made the active and inactive calls. Cut-off read from the data, not from the text of the source: active = GI50 up to about 1.1 µM and inactive = higher.
Reported GI50 values follow for various compounds

CC(=O)Nc1cc(CN2CCCCC2)c(O)c2ncccc12; 27.2 µM (inactive)

## Input Lookup: GI50 / HOP-62 / `O=C(NCCCN1CCN(CCCNC(=O)c2cnc3ccccc3n2)CC1)c1cnc2ccccc2n1`
## Output > 100 µM (inactive)

## Input Lookup: GI50 / HOP-62 / O=C(O[C@H]1[C@@H]2C=CO[C@@H](OC3OC(CO)C(O)C(O)C3O)[C@@H]2[C@@]2(CO)O[C@@H]12)c1ccc(O)c(O)c1 (some centres undefined)
## Output > 100 µM (inactive)

## Input Lookup: GI50 / HOP-62 / `O=[N+]([O-])C(C(Cl)=C(Cl)Cl)=C(N(Cc1ccccc1)Cc1ccccc1)N(Cc1ccccc1)Cc1ccccc1`
## Output 43.7 µM (inactive)

----------
- System: MDA-N
- Experiment Summary: NCI tumour cell line growth inhibition, 48 h
Calls of active or inactive are those of the source. No stated cut-off is given here; in the data, active = GI50 up to about 1.1 µM and inactive = higher.
Write down the outcome that applies. Available outcomes: t (active), f (inactive)

O=C(O)c1cccc2cccc(-c3cccc4cccc(C(=O)O)c34)c12; f
O=S(=O)(c1ccc(Cl)cc1)c1ccccc1C1=NCCN1; f
CN(N=O)c1nc2c(C(N)=O)ncn2s1; f
COC(=O)C1CCC(=O)N1CN(C(C)=O)c1cccc(O)c1 (stereo not given); f
CCCCNC(=S)c1ccc(OC(=O)Nc2ccc(Cl)cc2)cc1; f

## Input Outcome? `COc1ccc2c(c1)c[n+](C)c1c3cc(OC)c(OC)cc3ccc21`
## Output f

## Input Outcome? `CCOC(=O)c1cc2c(C(=O)c3ccc([N+](=O)[O-])cc3)c(C(C)=O)ccc2[nH]1`
## Output f

## Input Outcome? O=C(O)C(CSC(c1ccccc1)(c1ccccc1)c1ccccc1)/N=C/c1cccs1 (stereo not given)
## Output t

## Input Outcome? `COc1cc(Nc2ccc3c(c2)CCC3)nc(OC)n1`
## Output f

## Input Outcome? `C[Si](C)(N[Si](C)(C)OCCc1ccccc1)OCCc1ccccc1`
## Output f

## Input Outcome? `CCOC(=O)CC[C@H](N)C(=O)N[C@@H](Cc1ccc(N(CCCl)CCCl)cc1)C(=O)OCC`
## Output t

----------
- System: M19-MEL
- Experiment Summary: NCI tumour cell line growth inhibition, 48 h
The source made the active and inactive calls. Cut-off read from the data, not from the text of the source: active = GI50 up to about 1.1 µM and inactive = higher.
Write down the outcome that applies. Available outcomes: 1.0 for active, 0.0 for inactive

Solved entries:
Cc1ccc(C(=O)/C=C/c2ccccc2Cl)cc1; 0.0
COc1ccc2c(c1)C(CCN)C(=O)N2 (stereo not given); 0.0
COc1ccc(/C=C/C(=O)c2sc(NC(=S)NC(=O)c3ccc(Cl)cc3)nc2C)cc1OC; 0.0
Cc1ccc(C2=C(c3ccccc3)C(O)(c3ccc(C)cc3)C(c3ccccc3)=C2c2ccc(C)cc2)cc1; 0.0
COc1cc(CNC2c3cc4c(cc3C(c3cc(OC)c(OC)c(OC)c3)[C@H]3C(=O)OCC23)OCO4)cc(OC)c1OC (stereo not given in full); 0.0

## Input Outcome? `CCCC(=O)N[C@H]1CCc2cc(OC)c(OC)c(OC)c2-c2ccc(SC)c(=O)cc21`
## Output 1.0

## Input Outcome? `O=C1c2ccncc2C(=O)c2c(O)ccc(O)c21`
## Output 0.0

## Input Outcome? COc1ccc(NC(=O)CC(=O)N2N=C(N(CCC#N)c3cccc(C)c3)CC2c2ccccc2)cc1 (stereo not given)
## Output 0.0

## Input Outcome? `COc1cc(NS(C)(=O)=O)ccc1NCc1c2ccccc2nc2ccccc12`
## Output 0.0

## Input Outcome? CC1CSC(=S)N1C(=O)N1C(=S)SCC1C (stereo not given)
## Output 0.0

----------
- System: OVCAR-4
- Experiment Summary: NCI tumour cell line growth inhibition, 48 h
Active and inactive are the calls of the source. No stated cut-off is given here; in the data, active = GI50 up to about 1.1 µM and inactive = higher.
Reported Metric: GI50

Use the examples below as a reference point.
CC(=O)OC1CCC2(C)C(=CC(C3C=C4CC(OC(C)=O)CCC4(C)C4=C3C3CC5OC6(CCC(C)CO6)C(C)C5C3(C)CC4)C3=C2CCC2(C)C3CC3OC4(CCC(C)CO4)C(C)C32)C1 (centres undefined); 14 µM (inactive)
Clc1ccc(-c2nn3c(C45CC6CC(CC(C6)C4)C5)nnc3s2)cc1; 34.4 µM (inactive)

## Input Recorded GI50 for COC(O)C(=O)c1c2c(cc3c1CC1(Cc4cc5c(cc4C1)CCC5)C3)CCC2 (centres undefined) , please?
## Output 18.5 µM (inactive)

## Input Recorded GI50 for `Clc1ccccc1CN1COc2c(cc(Cl)c3cccnc23)C1` , please?
## Output 3.97 µM (inactive)

----------
- System: SNB-19
- Experiment Summary: NCI tumour cell line growth inhibition, 48 h
Calls of active or inactive are those of the source. Rule as the data show it: active = GI50 up to about 1.1 µM and inactive = higher.
Reported Metric: GI50

COc1ccc(C(=O)C(c2ccc(OC)cc2)C2(O)C(=O)Nc3ccc([N+](=O)[O-])cc32)cc1 (stereo unspecified); > 100 µM (inactive)
CCCCCCc1cc2cc(C(=O)Nc3ccccc3)c(=N)oc2cc1O; 3.33 µM (inactive)
C#CC[N+](C)(CC#C)CC#C; > 100 µM (inactive)
Cc1cccc(C)c1NC(=O)CCCC(=O)C1CCC/C1=N\NC(=O)C(=O)NN (stereo unspecified); > 100 µM (inactive)
O=C(NCCCCCCCCCCCCNC(=O)c1cnc2ccccc2n1)c1cnc2ccccc2n1; 14.8 µM (inactive)

## Input Recorded GI50 for C=CCCCCNC(=O)C[C@@H]1C2=C(CC[C@H]1O[Si](C)(C)C(C)(C)C)N1C(=O)CCC/C=C\C1C2 (stereo partly specified) , please?
## Output 14.4 µM (inactive)

## Input Recorded GI50 for `N#CCN1CCCCCc2ccccc21` , please?
## Output > 100 µM (inactive)

## Input Recorded GI50 for `N#Cc1c(N2CCCC2)ncn(-c2ccccc2)c1=S` , please?
## Output > 100 µM (inactive)

## Input Recorded GI50 for `CC1=CC(=O)c2cccc(O)c2C1=O` , please?
## Output 8.07 µM (inactive)

## Input Recorded GI50 for `C[C@]12CC[C@H]3[C@@H](CC=C4C[C@@H](N5CCCC5)CC[C@@]43C)[C@@H]1C/C(=C\c1ccc([N+](=O)[O-])cc1)[C@@H]2O` , please?
## Output 24.7 µM (inactive)

## Input Recorded GI50 for `Cc1ccc(C2=C(c3ccccc3)C(O)(c3ccc(C)cc3)C(c3ccccc3)=C2c2ccc(C)cc2)cc1` , please?
## Output > 100 µM (inactive)

## Input Recorded GI50 for `CC(C)(C)Cc1cc(O)ccc1O` , please?
## Output 49.9 µM (inactive)

----------
Reported GI50 values follow for various compounds
- Test system: OVCAR-5
- Experiment Summary: NCI tumour cell line growth inhibition, 48 h
The source made the active and inactive calls. Rule as the data show it: active = GI50 up to about 1.1 µM and inactive = higher.

c1ccc(COc2cccc3ccc[n+](Cc4ccccc4)c23)cc1; 1.92 µM (inactive)
COc1ccc(C2=C(Cl)c3cc(OC)c(OC)cc3C2Cl)cc1OC (stereo unspecified); 16.3 µM (inactive)
COc1ccc([C@]23CCN4COC[C@@H]([C@H]42)C2(CC3)OCC(C)(C)CO2)cc1OC; > 100 µM (inactive)

## Input Recorded GI50 for `COc1ccc(C2=NOP(c3ccccc3)(c3ccccc3)(c3ccccc3)C2)cc1` , please?
## Output 4.45 µM (inactive)

## Input Recorded GI50 for `c1ccc2c(c1)Nc1ccccc1[P+]21c2ccccc2Nc2ccccc21` , please?
## Output 0.281 µM (active)

## Input Recorded GI50 for `O=C1CCc2nc3ncccc3cc2C1` , please?
## Output > 100 µM (inactive)

## Input Recorded GI50 for `O=C(Nc1ccccn1)c1cc2c(cc1Cl)Sc1nccn1S2(=O)=O` , please?
## Output > 100 µM (inactive)

## Input Recorded GI50 for `CN(C)c1ccc(/C=N/NC2=N/C(=C\c3ccco3)C(=O)N2)cc1` , please?
## Output > 100 µM (inactive)

## Input Recorded GI50 for `CC(C)=C[C@H]1C[C@H](C)[C@H]2CC[C@H](C)c3c2c1c(C)c1ncoc31` , please?
## Output 16 µM (inactive)

## Input Recorded GI50 for CC(N)Cc1ccc(Cl)c(Cl)c1 (stereo unspecified) , please?
## Output 30.1 µM (inactive)

## Input Recorded GI50 for `C#CCCCOc1ncccn1` , please?
## Output > 100 µM (inactive)

These entries and their values trace back to ChEMBL document CHEMBL1201862.
